Provenance of the data: patent US20240376084A1

# target.of.assay: S. aureus Alpha hemolysin (Staphylococcus aureus, UniProt P09616)
# Sequence (P09616 27-319 limits assumed): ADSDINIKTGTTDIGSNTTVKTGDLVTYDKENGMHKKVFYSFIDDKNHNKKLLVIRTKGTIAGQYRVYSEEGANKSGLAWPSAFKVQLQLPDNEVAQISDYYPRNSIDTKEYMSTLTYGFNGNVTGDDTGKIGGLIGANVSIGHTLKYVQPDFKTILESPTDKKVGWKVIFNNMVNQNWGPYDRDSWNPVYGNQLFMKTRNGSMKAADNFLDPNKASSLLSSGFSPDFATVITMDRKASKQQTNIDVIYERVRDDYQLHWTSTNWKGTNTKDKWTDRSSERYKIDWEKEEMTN
# method: cell-based
# condition.context: A549-LDH Assay activity
endpoint.name: EC50

*Q* Determine its reported EC50: `Cc1cc2[nH]c(=O)c(=O)[nH]c2cc1S(=O)(=O)Nc1ccc(-n2ccnc2)cc1`
*A* 1 to 6 µM

*Q* Determine its reported EC50: `O=c1[nH]c2cc(Cl)c(S(=O)(=O)Nc3ccc(-c4ccncc4)c(Cl)c3)cc2[nH]c1=O`
*A* 0.1 to 1 µM

*Q* Determine its reported EC50: `Cc1cc2[nH]c(=O)c(=O)[nH]c2c(F)c1S(=O)(=O)Nc1ccc(-c2cccc(Cl)c2)c(Cl)c1`
*A* 1 to 6 µM

*Q* Determine its reported EC50: `Cc1ccccc1-c1ccc(NS(=O)(=O)c2cc3[nH]c(=O)c(=O)[nH]c3cc2C)cc1C`
*A* 0.1 to 1 µM

###

# target.of.assay: hemolysin alpha from Staphylococcus aureus (Staphylococcus aureus)
# Sequence (P09616 27-319 limits assumed): as above
# method: cell-based
endpoint.name: EC50

*Q* Report value only: EC50, hemolysin alpha from Staphylococcus aureus (Staphylococcus aureus), Cc1cc2[nH]c(=O)c(=O)[nH]c2cc1S(=O)(=O)Nc1ccc(-c2ccc(C#N)cc2)c(Cl)c1 [Compound 376]
*A* < 30 nM

*Q* Report value only: EC50, hemolysin alpha from Staphylococcus aureus (Staphylococcus aureus), COCCn1cc(-c2ccc(NS(=O)(=O)c3cc4[nH]c(=O)c(=O)[nH]c4cc3C)cc2Cl)cn1 [Compound 344]
*A* 1000 to 3500 nM

*Q* Report value only: EC50, hemolysin alpha from Staphylococcus aureus (Staphylococcus aureus), Cc1cc2[nH]c(=O)c(=O)[nH]c2cc1S(=O)(=O)Nc1cnc(-c2cccc(Cl)c2)c(Cl)c1 [Compound 213]
*A* 100 to 1000 nM

*Q* Report value only: EC50, hemolysin alpha from Staphylococcus aureus (Staphylococcus aureus), Cc1cc2[nH]c(=O)c(=O)[nH]c2cc1S(=O)(=O)Nc1ccc(-c2cccc(O)c2)c(Cl)c1 [Compound 386]
*A* < 30 nM

*Q* Report value only: EC50, hemolysin alpha from Staphylococcus aureus (Staphylococcus aureus), CN(C)c1cc2[nH]c(=O)c(=O)[nH]c2cc1S(=O)(=O)Nc1ccc(OC(F)(F)F)cc1 [Compound 221]
*A* 30 to 100 nM

*Q* Report value only: EC50, hemolysin alpha from Staphylococcus aureus (Staphylococcus aureus), Cc1cc(C)cc(-c2ccc(NS(=O)(=O)c3cc4[nH]c(=O)c(=O)[nH]c4cc3C)cc2Cl)c1 [Compound 248]
*A* 100 to 1000 nM

*Q* Report value only: EC50, hemolysin alpha from Staphylococcus aureus (Staphylococcus aureus), Cc1cc2[nH]c(=O)c(=O)[nH]c2cc1S(=O)(=O)Nc1ccc(-c2ccc(C(F)(F)F)nc2)c(Cl)c1 [Compound 275]
*A* 100 to 1000 nM

*Q* Report value only: EC50, hemolysin alpha from Staphylococcus aureus (Staphylococcus aureus), COc1cc2[nH]c(=O)c(=O)[nH]c2cc1S(=O)(=O)Nc1ccc(OC(F)F)cc1 [Compound 391]
*A* 1000 to 3500 nM

*Q* Report value only: EC50, hemolysin alpha from Staphylococcus aureus (Staphylococcus aureus), Cc1cc2[nH]c(=O)c(=O)[nH]c2cc1S(=O)(=O)Nc1ccc(-c2ccc(F)c(C(N)=O)c2)c(C(F)(F)F)c1 [Compound 368]
*A* 30 to 100 nM

*Q* Report value only: EC50, hemolysin alpha from Staphylococcus aureus (Staphylococcus aureus), Cc1cc2[nH]c(=O)c(=O)[nH]c2cc1S(=O)(=O)Nc1ccc(-c2ccc3cc[nH]c3c2)c(C(F)(F)F)c1 [Compound 369]
*A* < 30 nM

*Q* Report value only: EC50, hemolysin alpha from Staphylococcus aureus (Staphylococcus aureus), O=c1[nH]c2cc(OC(F)(F)F)c(S(=O)(=O)Nc3ccc(-c4ccc(F)cc4)c(Cl)c3)cc2[nH]c1=O [Compound 197]
*A* 1000 to 3500 nM

*Q* Report value only: EC50, hemolysin alpha from Staphylococcus aureus (Staphylococcus aureus), Cc1cc2[nH]c(=O)c(=O)[nH]c2cc1S(=O)(=O)Nc1ccc(-c2ccc3c(c2)N(C)C(=O)CO3)c(Cl)c1 [Compound 356]
*A* < 30 nM

*Q* Report value only: EC50, hemolysin alpha from Staphylococcus aureus (Staphylococcus aureus), C#Cc1cc(NS(=O)(=O)c2cc3[nH]c(=O)c(=O)[nH]c3cc2C)ccc1-c1ccc2cc[nH]c2c1 [Compound 301]
*A* < 30 nM

*Q* Report value only: EC50, hemolysin alpha from Staphylococcus aureus (Staphylococcus aureus), Cc1cc2[nH]c(=O)c(=O)[nH]c2cc1S(=O)(=O)Nc1ccc(C2CCOCC2)cc1 [Compound 304]
*A* 1000 to 3500 nM

*Q* Report value only: EC50, hemolysin alpha from Staphylococcus aureus (Staphylococcus aureus), Cc1cc2[nH]c(=O)c(=O)[nH]c2cc1S(=O)(=O)Nc1ccc(N2CCOCC2)c(Cl)c1 [Compound 200]
*A* 1000 to 3500 nM

*Q* Report value only: EC50, hemolysin alpha from Staphylococcus aureus (Staphylococcus aureus), Cc1cc2[nH]c(=O)c(=O)[nH]c2cc1S(=O)(=O)Nc1ccc(-c2ccc(S(C)(=O)=O)cc2F)c(Cl)c1 [Compound 262]
*A* 1000 to 3500 nM

*Q* Report value only: EC50, hemolysin alpha from Staphylococcus aureus (Staphylococcus aureus), COc1ccc(-c2ccc(NS(=O)(=O)c3cc4[nH]c(=O)c(=O)[nH]c4cc3C)cc2Cl)c(F)c1 [Compound 261]
*A* < 30 nM

*Q* Report value only: EC50, hemolysin alpha from Staphylococcus aureus (Staphylococcus aureus), Cc1cc2[nH]c(=O)c(=O)[nH]c2cc1S(=O)(=O)Nc1ccc(-c2ccc3c(c2)NCCO3)c(Cl)c1 [Compound 353]
*A* 30 to 100 nM

*Q* Report value only: EC50, hemolysin alpha from Staphylococcus aureus (Staphylococcus aureus), Cc1cc2[nH]c(=O)c(=O)[nH]c2cc1S(=O)(=O)Nc1ccc(-c2ccc(NC(=O)N(C)C)cc2)c(Cl)c1 [Compound 332]
*A* 100 to 1000 nM

*Q* Report value only: EC50, hemolysin alpha from Staphylococcus aureus (Staphylococcus aureus), CCOc1ccc(-c2ccc(NS(=O)(=O)c3cc4[nH]c(=O)c(=O)[nH]c4cc3C)cc2Cl)cc1 [Compound 319]
*A* 30 to 100 nM

*Q* Report value only: EC50, hemolysin alpha from Staphylococcus aureus (Staphylococcus aureus), Cc1nc2cc(-c3ccc(NS(=O)(=O)c4cc5[nH]c(=O)c(=O)[nH]c5cc4C)cc3Cl)ccc2o1 [Compound 272]
*A* < 30 nM

*Q* Report value only: EC50, hemolysin alpha from Staphylococcus aureus (Staphylococcus aureus), Cc1cc2[nH]c(=O)c(=O)[nH]c2cc1S(=O)(=O)Nc1ccc(-c2ccc3c(c2)CCN3C)c(Cl)c1 [Compound 341]
*A* 100 to 1000 nM

*Q* Report value only: EC50, hemolysin alpha from Staphylococcus aureus (Staphylococcus aureus), Cc1cc2[nH]c(=O)c(=O)[nH]c2cc1S(=O)(=O)Nc1ccc(N2CCOCC2(C)C)c(Cl)c1 [Compound 202]
*A* 100 to 1000 nM

*Q* Report value only: EC50, hemolysin alpha from Staphylococcus aureus (Staphylococcus aureus), Cc1cc2[nH]c(=O)c(=O)[nH]c2cc1S(=O)(=O)Nc1ccc(-c2cccc(Br)c2)c(Cl)c1 [Compound 310]
*A* < 30 nM

*Q* Report value only: EC50, hemolysin alpha from Staphylococcus aureus (Staphylococcus aureus), Cc1cc2[nH]c(=O)c(=O)[nH]c2cc1S(=O)(=O)Nc1ccc(-n2cncn2)cc1 [Compound 265]
*A* 1000 to 3500 nM

*Q* Report value only: EC50, hemolysin alpha from Staphylococcus aureus (Staphylococcus aureus), [2H]C([2H])([2H])c1cc2[nH]c(=O)c(=O)[nH]c2cc1S(=O)(=O)Nc1cnc(-c2ccc(F)cc2)c(Cl)c1 [Compound 392]
*A* 30 to 100 nM

*Q* Report value only: EC50, hemolysin alpha from Staphylococcus aureus (Staphylococcus aureus), Cc1cc2[nH]c(=O)c(=O)[nH]c2cc1S(=O)(=O)Nc1ccc(-c2cccc(OC(F)(F)F)c2)c(Cl)c1 [Compound 339]
*A* 30 to 100 nM

*Q* Report value only: EC50, hemolysin alpha from Staphylococcus aureus (Staphylococcus aureus), C#Cc1cc(NS(=O)(=O)c2cc3[nH]c(=O)c(=O)[nH]c3cc2C)ccc1-c1ccc(C#N)cc1 [Compound 253]
*A* < 30 nM
